Read-out: Interleukin-8 (IL8), CXCL8 (gene 3576)
Run Description: BSK_SAg_IL8: BioMAP Diversity Plus: SAg Assay for Interleukin-8 (IL8) Biomarker Activity (AID 2283094)
Experimental Parameters: primary human HUVEC with PBMC; actives raise or lower the signal
Active and inactive are the calls of the source. The calls were made as follows: active = hit-call score of the fitted dose curve at least 0.9, where 1 is the maximum; inactive = score below 0.9.
Outcome codes: 1 = active, 0 = inactive

structure=OCC(CO)(CO)CO cat=0
structure=C=CN1CCCC1=O cat=0
structure=FC(F)=C(F)C(F)(F)C(F)(F)C(F)(F)C(F)(F)C(F)(F)C(F)(F)F cat=0
structure=NNC(=O)c1ccncc1 cat=0
structure=CCCCOC(=O)c1ccccc1 cat=0
structure=CC1(C)C(=O)N(Cl)C(=O)N1Cl cat=0
structure=Cc1nccn1-c1ccc(Sc2cccc(C3(C(N)=O)CCOCC3)c2)cc1 cat=1

* * *

Run Description: Tanguay_ZF_120hpf_ActivityScore_legacy: (Legacy) Oregon State University Tanguay Lab 120 Hour Post-fertilization zebrafish Assay Score for Activity (AID 2283742)
Calls of active or inactive are those of the source. Rule for the calls: active = hit-call score of the fitted dose curve at least 0.9, where 1 is the maximum; inconclusive = response in the unintended direction; inactive = score below 0.9.
Labels: active, inactive

structure=Cn1c(=O)c2[nH]cnc2n(C)c1=O cat=inactive
structure=c1ccc(C(O[C@@H]2CCCN(CCc3ccc4c(c3)OCO4)C2)c2ccccc2)cc1 cat=active
structure=C[C@]12C=CC(=O)C=C1CC[C@H]1[C@@H]3C[C@@H](O)[C@](O)(C(=O)CO)[C@@]3(C)C[C@H](O)[C@@]12F cat=active
structure=CC(C)c1nnc2ccc(-c3ocnc3-c3cc(F)ccc3F)cn12 cat=inactive
structure=OCCNCCO cat=inactive
structure=c1ccc2ncccc2c1 cat=inactive

* * *

Run Description: APR_HepG2_MicrotubuleCSK_72hr: Apredica 72-hour HepG2 Assay for Microtubule CSK Stabilty (AID 2282919)
Experimental Parameters: HepG2 microtubule cytoskeleton, high-content imaging, actives raise or lower the signal
Calls of active or inactive are those of the source. Rule for the calls: active = hit-call score of the fitted dose curve at least 0.9, where 1 is the maximum; inactive = score below 0.9.
Outcomes: active, inactive

compound=CCc1cccc(CC)c1N cat=inactive
compound=OC(Cn1cncn1)(Cn1cncn1)c1ccc(F)cc1F cat=inactive
compound=CCCCOC(=O)c1ccccc1 cat=inactive
compound=c1ccc(C(O[C@@H]2CCCN(CCc3ccc4c(c3)OCO4)C2)c2ccccc2)cc1 cat=inactive
compound=OC[C@H]1O[C@@H]2O[C@H]3[C@H](O)[C@@H](O)[C@@H](O[C@H]4[C@H](O)[C@@H](O)[C@@H](O[C@H]5[C@H](O)[C@@H](O)[C@@H](O[C@H]6[C@H](O)[C@@H](O)[C@@H](O[C@H]7[C@H](O)[C@@H](O)[C@@H](O[C@H]1[C@H](O)[C@H]2O)O[C@@H]7CO)O[C@@H]6CO)O[C@@H]5CO)O[C@@H]4CO)O[C@@H]3CO cat=inactive
compound=CCOC(N)=O cat=inactive
compound=COS(C)(=O)=O cat=inactive
compound=O=S1(=O)CCCO1 cat=inactive
compound=CCCCCCCCCC cat=inactive
compound=Nc1ccn([C@@H]2O[C@H](CO)[C@@H](O)[C@@H]2O)c(=O)n1 cat=inactive
compound="CCCCC(CC)C(=O)OCCOCCOCCOC(=O)C(CC)CCCC (stereo not drawn)" cat=inactive
compound=Cc1nc(-c2ccccn2)ncc1C(=O)Nn1cc(C)c2cc(F)ccc21 cat=inactive
compound=C=CCc1cc(S(=O)(=O)c2ccc(O)c(CC=C)c2)ccc1O cat=inactive
compound=c1ccc2c(c1)-c1cccc3c1c-2cc1ccccc13 cat=inactive
compound=COc1cc2c(c(OC)c1OC)-c1ccc(OC)c(=O)cc1[C@@H](NC(C)=O)CC2 cat=active
compound=OCCOCCOCCO cat=inactive
compound=O=S(=O)(O)c1ccc(N=Nc2c(O)ccc3cc(S(=O)(=O)O)ccc23)cc1 cat=inactive
compound=NC(=O)N(O)[C@@H]1COc2cc(OCc3ccccc3)ccc21 cat=inactive
compound=O=c1[nH]cnc2c1ncn2[C@H]1CC[C@@H](CO)O1 cat=inactive
compound=CCCOc1ccc(S(=O)(=O)N2CCN(CC)CC2)cc1-c1nc2c(CC)n(Cc3ccccn3)nc2c(=O)[nH]1 cat=inactive
compound=COCc1nnc(-c2ccc[n+]([O-])c2)n1-c1c(Cl)c(Cl)cc2[nH]c(=O)c(=O)[nH]c12 cat=inactive
compound=C=CN1CCCC1=O cat=inactive
compound="CC(C)CC(C)O (stereo not drawn)" cat=inactive

* * *

Read-out: matrix metalloproteinase-10 (MMP10), MMP10 (gene 4319)
Run Description: LTEA_HepaRG_MMP10: Life Technologies and Expression Analysis (LTEA) Assay for matrix metalloproteinase-10 (MMP10) using HepaRG (AID 2283517)
Experimental Parameters: mRNA level, 48 h; actives raise or lower the signal
Activity calls are given as the source filed them. The calls were made as follows: active = hit-call score of the fitted dose curve at least 0.9, where 1 is the maximum; inactive = score below 0.9.
Labels: 1 (active), -1 (inactive)

molecule=COc1cc(C(C)C)c2c(c1)S(=O)(=O)N(COc1cc(=O)n3cccc(OCCN4CCCCC4)c3n1)C2=O cat=1
molecule=CCN(CC)C(=S)SSC(=S)N(CC)CC cat=-1
molecule=CCCCCCOC(=O)CC(CC(=O)OCCCCCC)(OC(=O)CCC)C(=O)OCCCCCC cat=-1
molecule=OC(CCl)CCl cat=-1
molecule=c1ccc2cc3ccccc3cc2c1 cat=-1
molecule=CC1(C)C(=O)N(Cl)C(=O)N1Cl cat=-1
molecule=c1ccc2c(c1)-c1cccc3c1c-2cc1ccccc13 cat=-1
molecule=Cc1ccc(S(=O)(=O)NC(=O)NN2CCCCCC2)cc1 cat=-1
molecule=O=S1(=O)CCCO1 cat=-1
molecule=CCc1ccc(O)c(C(C)(C)C)c1 cat=-1
molecule="CC(C)CCCCCCOC(=O)C1CCCCC1C(=O)OCCCCCCC(C)C (stereo not drawn)" cat=-1
molecule="CCCCCCCC1CCC(=O)O1 (stereo not drawn)" cat=-1
molecule=CCCCOC(=O)c1ccccc1 cat=-1
molecule=O=C(NO)C1(NS(=O)(=O)c2ccc(Oc3ccc(F)cc3)cc2)CCOCC1 cat=-1
molecule=C=CCc1cc(S(=O)(=O)c2ccc(O)c(CC=C)c2)ccc1O cat=1
molecule=OC(Cn1cncn1)(Cn1cncn1)c1ccc(F)cc1F cat=-1
molecule=CCOC(N)=O cat=-1
molecule=NC(=O)NN=Cc1ccc([N+](=O)[O-])o1 cat=1
molecule=Cn1cc[nH]c1=S cat=-1
molecule=OCCOCCOCCO cat=-1
molecule=O=C(O)[C@H](O)[C@@H](O)C(=O)O cat=-1
molecule=NC(=O)N1c2ccccc2C=Cc2ccccc21 cat=-1
molecule=CCCCCCCCCCCCCCCCOS(=O)(=O)O cat=-1
molecule=COc1cc2c(c(OC)c1OC)-c1ccc(OC)c(=O)cc1[C@@H](NC(C)=O)CC2 cat=1
molecule=CNC(C)=O cat=-1
molecule=CCCCCCCCCCCCCCO cat=-1
molecule=CCCC(CCC)C(=O)O cat=-1
molecule=O=C(O)c1cccc(C(=O)O)c1 cat=-1
molecule=CC[C@H](C)C(=O)O[C@H]1C[C@H](O)C=C2C=C[C@H](C)[C@H](CC[C@@H](O)C[C@@H](O)CC(=O)O)[C@H]21 cat=-1
molecule=NC(=O)N(O)[C@@H]1COc2cc(OCc3ccccc3)ccc21 cat=-1
molecule=C[C@@H](Oc1ccc(CNC(=O)c2cccnc2Oc2ccc3c(c2)OCO3)c(F)c1)C(=O)O cat=-1
molecule=NNC(=O)c1ccncc1 cat=-1
molecule=O=C1CN(N=Cc2ccc([N+](=O)[O-])o2)C(=O)N1 cat=-1
molecule=OC[C@H]1O[C@@](CO)(O[C@H]2O[C@H](CO)[C@@H](O)[C@H](O)[C@H]2O)[C@@H](O)[C@@H]1O cat=-1
molecule=CC(C)c1nnc2ccc(-c3ocnc3-c3cc(F)ccc3F)cn12 cat=-1
molecule=CCCCCCCCN(C)C cat=-1
molecule=CC(C)C(=O)Nc1ccc([N+](=O)[O-])c(C(F)(F)F)c1 cat=1
molecule=CCCCN1C(=O)[C@@H]([C@H](O)C2CCCCC2)NC(=O)C12CCN(Cc1ccc(Oc3ccc(C(=O)O)cc3)cc1)CC2 cat=1

* * *

Run Description: CCTE_Shafer_MEA_dev_correlation_coefficient_mean: CCTE's Neural Network Formation Assay for Mean Correlation Coefficient, Shafer Lab (AID 2284093)
Activity calls are given as the source filed them. How the source made its calls: active means hit-call score of the fitted dose curve at least 0.9, where 1 is the maximum; inactive means score below 0.9.
Classes used: active, inactive

structure=C[C@]12C=CC(=O)C=C1CC[C@H]1[C@@H]3C[C@@H](O)[C@](O)(C(=O)CO)[C@@]3(C)C[C@H](O)[C@@]12F cat=active
structure=c1ccc2cc3ccccc3cc2c1 cat=inactive
structure=FC(F)(F)C(F)(F)C(F)(F)C(F)(F)C(F)(F)C(F)(F)I cat=inactive
structure=c1ccc2c(c1)-c1cccc3c1c-2cc1ccccc13 cat=inactive
structure=CCOc1ccc2[nH]cc(C(=O)NCc3ccccc3)c(=O)c2n1 cat=inactive

* * *

Tested System: Bile acid receptor (Homo sapiens)
Run Description: ATG_FXR_TRANS: Attagene TRANS-FACTORIAL HepG2 Assay for Farnesoid X Receptor (FXR) (AID 2282979);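 also: hits raise reporter mRNA above DMSO so AC50 marks FXR activation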
Experimental Parameters: HepG2 Attagene TRANS FXR-GAL4 reporter transcription
Results filed as inconclusive are left out. Activity calls are given as the source filed them. Rule for the calls: active = hit-call score of the fitted dose curve at least 0.9, where 1 is the maximum; inconclusive = response in the unintended direction; inactive = score below 0.9.
Reported Metric: outcome

molecule="CC(C)CCCCCCOC(=O)C1CCCCC1C(=O)OCCCCCCC(C)C (centres undefined)" measured_result=inactive
molecule="FC(F)C(F)(F)COCC1CO1 (centres undefined)" measured_result=inactive
molecule=O=C(O)[C@H](O)[C@@H](O)C(=O)O measured_result=inactive
molecule=C[Si](C)(C)C(F)(F)C(F)(F)C(F)(F)F measured_result=inactive
molecule=CCN(CC)C(=S)SSC(=S)N(CC)CC measured_result=inactive
molecule=CC(C)c1nnc2ccc(-c3ocnc3-c3cc(F)ccc3F)cn12 measured_result=inactive
molecule=C=CCc1cc(S(=O)(=O)c2ccc(O)c(CC=C)c2)ccc1O measured_result=inactive
molecule=FC(F)(F)COC(OCC(F)(F)F)OCC(F)(F)F measured_result=inactive
molecule=Cc1ncc([C@@H](CCCCCCc2ccc3c(n2)NCCC3)CC(=O)O)cn1 measured_result=inactive
